meta.source: paper PMC10205807

- test-name: PK study in dogs (intravenous and oral)
- Type: in vivo
- condition-info: male, beagle, dog, plasma, intravenous 3 mg/kg

substance-smiles	AUC(0-inf) (ng·h/mL)
COc1cc2nccc(Oc3ccc(NC(=O)NC4CC4)c(Cl)c3)c2cc1C(N)=O	8420

---

- test-name: PK study in rats (intravenous and oral)
- Type: in vivo
- condition-info: male, Sprague-Dawley, rat, plasma, oral 3 mg/kg
readout-name: MRT (h)

substance-smiles	experimental-result
COc1cc2nccc(Oc3ccc(NC(=O)NC4CC4)c(Cl)c3)c2cc1C(N)=O	4.46

---

- Tested on: plasma protein
- test-name: in vitro plasma protein binding, monkeys
- Assay type: in vitro ADME
- condition-info: monkey plasma, 0.3 μg/mL

compound	fraction unbound at 0.3 μg/mL
COc1cc2nccc(Oc3ccc(NC(=O)NC4CC4)c(Cl)c3)c2cc1C(N)=O [lenvatinib, Lenvatinib]	0.039
